- systemUnderTest: Human PARP-1 enzyme (Homo sapiens, UniProt P09874)
- Construct: purchased Trevigen
- Sequence (P09874 whole entry): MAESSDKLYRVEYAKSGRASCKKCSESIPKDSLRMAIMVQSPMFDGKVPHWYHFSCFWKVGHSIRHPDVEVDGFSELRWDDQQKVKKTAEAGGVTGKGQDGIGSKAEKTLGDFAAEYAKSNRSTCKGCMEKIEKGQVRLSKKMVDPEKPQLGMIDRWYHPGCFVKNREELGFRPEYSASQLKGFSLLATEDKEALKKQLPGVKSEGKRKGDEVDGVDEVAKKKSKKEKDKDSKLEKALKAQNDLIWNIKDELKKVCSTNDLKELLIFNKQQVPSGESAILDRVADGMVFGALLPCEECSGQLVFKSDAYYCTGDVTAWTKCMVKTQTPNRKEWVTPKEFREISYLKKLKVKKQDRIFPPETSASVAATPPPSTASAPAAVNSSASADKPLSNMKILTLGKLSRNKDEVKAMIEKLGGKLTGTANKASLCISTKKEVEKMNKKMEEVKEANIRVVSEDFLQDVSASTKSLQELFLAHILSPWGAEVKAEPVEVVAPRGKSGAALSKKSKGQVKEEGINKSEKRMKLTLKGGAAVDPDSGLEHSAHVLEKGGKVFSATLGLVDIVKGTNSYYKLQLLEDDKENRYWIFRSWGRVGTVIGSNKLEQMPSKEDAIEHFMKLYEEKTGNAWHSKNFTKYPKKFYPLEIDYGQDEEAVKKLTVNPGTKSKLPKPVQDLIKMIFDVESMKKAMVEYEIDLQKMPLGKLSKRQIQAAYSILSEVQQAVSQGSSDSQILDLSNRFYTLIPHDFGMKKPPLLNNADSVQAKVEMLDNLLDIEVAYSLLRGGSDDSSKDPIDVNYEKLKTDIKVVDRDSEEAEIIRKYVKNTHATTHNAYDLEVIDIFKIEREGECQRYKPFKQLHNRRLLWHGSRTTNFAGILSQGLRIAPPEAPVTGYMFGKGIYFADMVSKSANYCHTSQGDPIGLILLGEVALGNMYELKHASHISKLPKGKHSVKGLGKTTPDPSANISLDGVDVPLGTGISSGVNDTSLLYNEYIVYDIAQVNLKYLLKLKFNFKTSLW
- protocolText: In vitro Scintillation Proximity Assay (SPA) for PARP-1 inhibitory activity
- Format: biochemical
- runConditions: read-out: in vitro SPA assay PARP-1 pIC50 (converted)
- Procedure: Compounds of the present invention were tested in an in vitro assay based on SPA technology (proprietary to GE healthcare). […] Histones (type II-A, supplier: Sigma) were biotinylated using the biotinylation kit of Amersham and stored aliquoted at −20° C. […] The beads were sedimented by centrifugation (10 min, 800 rpm). and plates transferred to a TopCountNXT™ (Packard) for scintillation counting, values were expressed as counts per minute (cpm). […]
Lab note: cut-off is 50 nM. Strictly less in IC50 is Fulfilled. Exactly 50 nM or more is Not fulfilled.

Is IC50 of CCc1cc2ccc(C(C)(C#N)Cc3cc(N(C)C)nc(OC)n3)cc2[nH]c1=O (centres unmarked) strictly below 50 nM?
Not fulfilled

---
Is IC50 of Cc1cc2ccc(C(C)(C#N)C3CCc4ccccc43)cc2[nH]c1=O (centres unmarked) strictly below 50 nM?
Not fulfilled

Is IC50 of CCc1cc2ccc(C(C)(C#N)Cc3cccc(C4(N)CC4)c3)cc2[nH]c1=O (centres unmarked) strictly below 50 nM?
Fulfilled

Is IC50 of Cc1cc2ccc(C(C)(C#N)Cc3cccc(Oc4ccc(F)cc4)c3)cc2[nH]c1=O (centres unmarked) strictly below 50 nM?
Not fulfilled

Is IC50 of Cc1cc2ccc(C(C)(C#N)Cc3cc4ccccc4[nH]3)cc2[nH]c1=O (centres unmarked) strictly below 50 nM?
Not fulfilled

Is IC50 of CCc1cc2ccc(C(C)(C#N)Cc3cnc(Cl)nc3Cl)cc2[nH]c1=O (centres unmarked) strictly below 50 nM?
Not fulfilled

Is IC50 of CCc1cc2ccc(C(C)(C#N)Cc3cc(C)cc(C#N)c3)cc2[nH]c1=O (centres unmarked) strictly below 50 nM?
Fulfilled

The measurements presented in this section are drawn from patent US8778966B2.
